Listing of entries alongside the reported Corn plant response rating.
Test system: corn
Assay: Test B pre-/postemergence herbicide test
Format: in vivo, Zea mays
Details: postemergence, 125 g ai/ha; visual rating, scale 0 (no effect) to 100 (complete control)

Worked set:
compound | target system | Corn plant response rating
CC(C)NS(=O)(=O)c1cccc(NC(=O)c2cc(C(C)(C)C)nn2C)c1 [Compound 124] | corn | 0
CCc1nc(C(C)(C)C)sc1C(=O)Nc1cccc(C(=O)N(C)C)c1 [Compound 228] | corn | 10
CCCCOC(=O)c1cccc(NC(=O)c2cc(C(C)(C)C)nn2CC)c1 [Compound 86] | corn | 20
CCNC(=O)c1cccc(NC(=O)c2nn(C(C)(C)C)cc2Cl)c1 [Compound 219] | corn | 0
CCNC(=O)c1cccc(NC(=O)c2sc(C(C)(C)C)nc2C)c1 [Compound 198] | corn | 20

Prompt: Please look up its Corn plant response rating: CCNC(=O)c1cc(NC(=O)c2cc(C(C)(C)C)nn2CC)ccc1F [Compound 58]
Response: 10

Prompt: Same for CCNC(=O)c1cccc(NC(=O)c2cn(C(C)(C)C)nc2CC)c1 [Compound 181]
Response: 20

Prompt: Same for CC(=NO)c1cc(NC(=O)c2cc(C(C)(C)C)nn2C)ccc1F [Compound 109]
Response: 10

Prompt: Same for CCc1nn(C(C)(C)C)cc1C(=O)Nc1cc(C(=O)N(CC)CC)ccc1F [Compound 223]
Response: 10
